Values from patent US9238684B2

System: SPANX-B-specific CD4^+ T cell lines
Assay: IFNγ secretion (ELISA) by CD4+ T cell lines stimulated with antigen-pulsed autologous DCs
Type: cell-based, human
Details: CD4+ T cell lines generated with SPANX-B protein-treated autologous DCs; FIGS. 3A-C
measuredParameter: IFNγ secretion by CD4+ T cell lines on stimulation with pulsed DCs

sequenceCode	reportedValue
QPAPKKMKTSESSTILVVRYRRNV (Synthetic peptide Pep-6)	failed to respond
ANEANEANKTMPETPTGDSDP (Synthetic peptide Pep-G2)	failed to respond
ALWFRNHFVFGGGTK (Synthetic peptide MOPC (9)) [control murine class II peptide, reference compound]	failed to respond
